Reported metric: melting point (°C)
State the answer as a number, implicitly in °C.

Could you tell me which melting point is on file for CC(=O)CN1CCC(CCN2CCN(c3ccc(F)c(Cl)c3)CC2)CC1 ? 92

Which melting point value belongs to Cc1cccc(C2=CCN(CC[C@H]3CC[C@H](NC(=O)C4=CCCC4)CC3)CC2)c1C#N ? 183

What melting point value was documented for this compound, N#CCCCC(=O)N[C@H]1CC[C@H](CCN2CCN(c3ccc(F)cc3F)CC2)CC1 ? 167

Could you share which melting point value was measured for COCCCC(=O)N[C@H]1CC[C@H](CCN2CCN(c3ccc(C)c(C)c3)CC2)CC1 ? 161
